# assayTarget: Leucine aminopeptidase (Plasmodium falciparum (isolate 3D7)) (UniProt Q8IL11)
# Sequence (Q8IL11 whole entry, looked up): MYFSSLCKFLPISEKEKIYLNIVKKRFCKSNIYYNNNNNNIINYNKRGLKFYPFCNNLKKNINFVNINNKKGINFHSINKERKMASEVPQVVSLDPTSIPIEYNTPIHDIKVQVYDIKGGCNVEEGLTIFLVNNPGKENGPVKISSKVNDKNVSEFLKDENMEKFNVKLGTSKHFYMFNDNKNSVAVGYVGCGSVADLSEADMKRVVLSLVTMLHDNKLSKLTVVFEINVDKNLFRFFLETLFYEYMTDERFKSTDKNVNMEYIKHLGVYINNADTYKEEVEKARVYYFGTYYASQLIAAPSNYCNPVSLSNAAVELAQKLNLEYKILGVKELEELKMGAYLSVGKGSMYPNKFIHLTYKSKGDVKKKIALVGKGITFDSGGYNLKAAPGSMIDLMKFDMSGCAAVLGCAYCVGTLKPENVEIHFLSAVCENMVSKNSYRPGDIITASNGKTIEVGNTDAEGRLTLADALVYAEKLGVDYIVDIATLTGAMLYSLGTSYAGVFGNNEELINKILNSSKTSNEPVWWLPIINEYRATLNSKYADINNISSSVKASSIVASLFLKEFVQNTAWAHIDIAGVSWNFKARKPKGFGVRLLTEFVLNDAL
# measurementNotes: P. falciparum M17LAP inhibitors, primary screen, biochemical, fluorogenic H-Leu-NHMec substrate, 1536-well (AID 1619);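 further: plate controls were full reaction with DMSO carrier for no effect and no enzyme background for full effect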
# measurementContext: recombinant M17LAP, H-Leu-NHMec fluorogenic kinetic assay; at 30 µM; active compounds read high
Hit rate of the full screen: of about 220,000 compounds, about 830 (0.38%) were called active. Only a sample is shown. Measured potencies and affinities stand elsewhere.
# inhibition values compiled below

Study these solved cases before continuing.
>>> result("CCOC(=O)c1sc(NS(=O)(=O)c2ccccc2)nc1C")
"23.4% (inactive)"
>>> result("Cc1ccc(C2N(c3nccs3)C(=O)C3CCCN32)cc1 (configuration not stated)")
"-15.4% (inactive)"
>>> result("CC(C)(C)NC(=O)C(c1ccc(O)cc1)N(C(=O)CCC(=O)Nc1nccs1)c1ccc(F)cc1 (configuration not stated)")
"13.2% (inactive)"
>>> result("O=C(O)[C@H]1CCCC[C@H]1C(=O)NCCc1ccccc1")
"36.3% (inactive)"
>>> result("Cc1cccc(NC(=O)c2nc[nH]c2C(=O)NCC(=O)OC(C)(C)C)c1")
"-3.35% (inactive)"

Fill in the blank: the reported inhibition of CC(C)C(=O)Nc1nnc(SCC(=O)Nc2ccc3c(c2)OCO3)s1 is ____.
14.7% (inactive)

Next up: COc1ccc(C2=NN(c3nc(C(=O)O)cs3)C(O)(C(F)(F)F)C2)c(OC)c1 (configuration not stated)
26.5% (inactive)

Next up: O=c1c2c(-c3ccc(Cl)cc3)csc2ncn1/N=C/c1cccc([N+](=O)[O-])c1O
-4.46% (inactive)

Next up: CCCc1cc(C(=O)NCc2ccco2)no1
-5.04% (inactive)

Next up: c1ccc(-c2nnc(N3CCOCC3)nc2-c2ccccc2)cc1
5.71% (inactive)

Next up: N#CCCN(CC(=O)O)S(=O)(=O)c1ccccc1
-11.6% (inactive)

Next up: Cc1ccc(O)c(CNn2cnnc2)c1
-3.08% (inactive)

Next up: COCc1nnc(NC(=O)c2cc(C(=O)OC)cc([N+](=O)[O-])c2)s1
6.44% (inactive)

Next up: CCCn1nnc(NC(=O)c2ccc(Br)cc2)n1
-4.35% (inactive)

Next up: COc1ccc(OC)c(NC(=O)c2cccnc2Sc2ccccc2)c1
-17.3% (inactive)

Next up: CC(C)c1nc(SCC(=O)N2CCCc3ccccc32)c2c(=O)n(C)c(=O)n(C)c2n1
-8.79% (inactive)

Next up: CCCn1c(/N=C/c2c[nH]c3ccccc23)nc2ccccc21
0.08% (inactive)

Next up: CC1=C(C)CC(C(=O)NCc2ccc3c(c2)OCO3)C(C(=O)O)C1 (configuration not stated)
45.8% (inactive)

Next up: COc1ccc(NC(=O)/C=C/c2c(Cl)nc3ccccn23)cc1
-6.42% (inactive)

Next up: COc1ccc(OC)c(NC(=O)C2CCCC2)c1
-9.43% (inactive)

Next up: O=C1c2ccccc2C(=O)N1CCCc1nc(-c2ccncc2)no1
-5.77% (inactive)

###

# assayTarget: Leucine aminopeptidase (Plasmodium falciparum (isolate 3D7))
# measurementNotes: P. falciparum M17LAP inhibitors, primary screen, biochemical, fluorogenic H-Leu-NHMec substrate, 1536-well (AID 1619)
# measurementContext: recombinant M17LAP, H-Leu-NHMec fluorogenic kinetic assay; at 30 µM; active compounds read high
About 830 (0.38%) of roughly 220,000 compounds were called active. These entries were drawn from the full list. Entries with a potency or affinity are not part of this list.
measuredMetric: inhibition (%)
Field format: number, assumed %, no unit text.

Study these solved cases before continuing.
>>> numericvalue("COc1cccc(NC(=S)N(CCCN2CCCC(C)C2)Cc2cccs2)c1 (configuration not stated)")
-0.27
>>> numericvalue("O=C(N/N=C/c1ccc2c(c1)OCO2)C(=O)Nc1ccccc1")
5.86
>>> numericvalue("Clc1cc(Cl)cc(Nc2ncnc(-n3cccc3)n2)c1")
12.9
>>> numericvalue("Cc1nc(CSc2nnc(Nc3cccc(C)c3C)s2)cs1")
22.7
>>> numericvalue("Cc1cccc(Nc2nnc(SCC(=O)N(C)C3CCS(=O)(=O)C3)s2)c1C (configuration not stated)")
35
>>> numericvalue("Clc1ccc(Nc2ccc(Cl)nn2)cc1")
-4.12
>>> numericvalue("O=C(O)C1CCCCC1C(=O)NCCc1ccccc1 (configuration not stated)")
32.3
>>> numericvalue("Cc1ccc(N(C(C)C(=O)O)S(=O)(=O)c2c(C)[nH]c(=O)[nH]c2=O)cc1 (configuration not stated)")
3.87
>>> numericvalue("O=S(=O)(N/N=C\\C=C\\c1ccccc1)c1ccc(Br)cc1")
31.2
>>> numericvalue("COC(=O)C1=C(Nc2cc(Cl)cc(Cl)c2)CSC1")
5.27

Fill in the blank: the reported inhibition of COc1ccc(CNC(=O)C2CCNCC2)cc1 is ____.
-2.52

Next up: S=c1[nH]nc(Nc2ccc(Cl)cc2)s1
11.5

###

# assayTarget: Leucine aminopeptidase (Plasmodium falciparum (isolate 3D7)) (UniProt Q8IL11)
# measurementNotes: P. falciparum M17LAP inhibitors, primary screen, biochemical, fluorogenic H-Leu-NHMec substrate, 1536-well (AID 1619);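 further: plate controls were full reaction with DMSO carrier for no effect and no enzyme background for full effect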
# measurementContext: recombinant M17LAP, H-Leu-NHMec fluorogenic kinetic assay; at 30 µM; active compounds read high
About 830 (0.38%) of roughly 220,000 compounds were called active. These entries were drawn from the full list. Potency and affinity values are given separately.
measuredMetric: inhibition (%)
Field format: number, assumed %, no unit text.

Study these solved cases before continuing.
>>> numericvalue("COc1ccccc1N1CCN(C(=O)COc2ccc(Cl)cc2Br)CC1")
1.89
>>> numericvalue("COc1ccc(NC(=O)C2=C(C)NC(=O)NC2c2cccs2)c(OC)c1 (stereo unspecified)")
2.25
>>> numericvalue("O=C(NCc1ccco1)c1cc(-c2ccccn2)nc2ccccc12")
6.45
>>> numericvalue("Cn1c(N)c(C(=O)c2ccc(F)cc2F)c(=O)n(C)c1=O")
5.53
>>> numericvalue("O=C(COc1ccc(C(=O)c2ccccc2)cc1)NCC(=O)Nc1ccccc1Br")
0.07
>>> numericvalue("COC(=O)[C@H](Cc1ccccc1)NC(=O)NCc1cccs1")
7.7
>>> numericvalue("O=C(NCc1ccccc1)N[C@@H](Cc1ccccc1)C(=O)O")
27.9
>>> numericvalue("Cc1cccc(NC(=O)CSc2nc(N)cc(N)n2)c1")
34.4

Fill in the blank: the reported inhibition of COc1ccccc1N(CC(=O)NCCC1=CCCCC1)S(=O)(=O)c1ccccc1 is ____.
-1.31

Next up: CC#CCC(CC#CC)c1nc2ccccc2c(=O)n1N
-1.78

Next up: NS(=O)(=O)c1ccc(NC(=O)N[C@@H](Cc2ccccc2)C(=O)O)cc1
9.55

###

# assayTarget: Leucine aminopeptidase (Plasmodium falciparum (isolate 3D7))
# measurementNotes: P. falciparum M17LAP inhibitors, primary screen, biochemical, fluorogenic H-Leu-NHMec substrate, 1536-well (AID 1619);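 further: plate controls were full reaction with DMSO carrier for no effect and no enzyme background for full effect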
# measurementContext: recombinant M17LAP, H-Leu-NHMec fluorogenic kinetic assay; at 30 µM; active compounds read high
Hit rate of the full screen: of about 220,000 compounds, about 830 (0.38%) were called active. Only a sample is shown. Entries with a potency or affinity are not part of this list.
# inhibition values compiled below
Field format: number, assumed %, no unit text.

>>> numericvalue("O=C(CSc1ccccc1C(=O)O)NCc1ccco1")
16.5
>>> numericvalue("CCc1c(C)sc2nc3c(C(=O)N4CCOCC4)cc(C(=O)c4ccccc4O)cn3c(=O)c12")
5.44
>>> numericvalue("O=C(O)CSc1nc2ccccc2n1-c1ccccc1")
6.57
>>> numericvalue("Cc1cc2cc(C)c3nnc(SCC(=O)Nc4ccc(S(=O)(=O)N5CCCCC5)cc4)n3c2cc1C")
-1.16

Okay, now this compound:
Fill in the blank: the reported inhibition of CC(C)CN(CC(C)C)S(=O)(=O)N1CCC(C(=O)NCc2ccc3c(c2)OCO3)CC1 is ____.
-3.17

###

# inhibition values compiled below
# assayTarget: Leucine aminopeptidase (Plasmodium falciparum (isolate 3D7))
# measurementNotes: P. falciparum M17LAP inhibitors, primary screen, biochemical, fluorogenic H-Leu-NHMec substrate, 1536-well (AID 1619);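 further: plate controls were full reaction with DMSO carrier for no effect and no enzyme background for full effect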
# measurementContext: recombinant M17LAP, H-Leu-NHMec fluorogenic kinetic assay; at 30 µM; active compounds read high
About 830 (0.38%) of roughly 220,000 compounds were called active. Only a sample is shown. Potency and affinity values are given separately.
Field format: number, assumed %, no unit text.

Study these solved cases before continuing.
>>> numericvalue("CCOc1ccc(NC(=O)C(=O)N/N=C\\c2ccc(CNS(=O)(=O)c3ccccc3)o2)cc1")
0.49
>>> numericvalue("CC(=O)NC(O)C(=O)c1ccco1 (stereo unspecified)")
3.51
>>> numericvalue("C=CCn1c(SCC(=O)O)nnc1-c1cccs1")
0.97
>>> numericvalue("Cc1ccc(NC(=O)CN(C)C(=O)CSc2nc(C)cs2)cc1")
-4.97
>>> numericvalue("COc1ccccc1CCc1nnc(CCC(=O)N(C)Cc2ccncc2C)o1")
-1.17

# returns recorded inhibition (system: Leucine aminopeptidase (Plasmodium falciparum (isolate 3D7))) for COc1ccc2[nH]c(C)c(CCNC(=S)Nc3ccc(F)cc3)c2c1
-5.1

Next up: COc1ccc(OC)c(NC(=O)CN2C(=O)c3ccccc3S2(=O)=O)c1
23.2

Next up: O=C(Nc1cc2c(oc1=O)CCCC2=O)c1ccccc1
1.43

Next up: CCn1c(SCC(=O)c2ccc(NS(=O)(=O)c3ccccc3)cc2)nnc1-c1cccs1
37

Next up: OC(C#CCN1CCCC1)c1ccccc1 (stereo unspecified)
9.35

Next up: CCOC(=O)c1ccccc1NC(=O)CN1C(=O)c2ccccc2S1(=O)=O
-15.2
